# System under test: canine TRPM8 (Canis lupus familiaris, UniProt Q1A7N1)
# Sequence (Q1A7N1 1-1104): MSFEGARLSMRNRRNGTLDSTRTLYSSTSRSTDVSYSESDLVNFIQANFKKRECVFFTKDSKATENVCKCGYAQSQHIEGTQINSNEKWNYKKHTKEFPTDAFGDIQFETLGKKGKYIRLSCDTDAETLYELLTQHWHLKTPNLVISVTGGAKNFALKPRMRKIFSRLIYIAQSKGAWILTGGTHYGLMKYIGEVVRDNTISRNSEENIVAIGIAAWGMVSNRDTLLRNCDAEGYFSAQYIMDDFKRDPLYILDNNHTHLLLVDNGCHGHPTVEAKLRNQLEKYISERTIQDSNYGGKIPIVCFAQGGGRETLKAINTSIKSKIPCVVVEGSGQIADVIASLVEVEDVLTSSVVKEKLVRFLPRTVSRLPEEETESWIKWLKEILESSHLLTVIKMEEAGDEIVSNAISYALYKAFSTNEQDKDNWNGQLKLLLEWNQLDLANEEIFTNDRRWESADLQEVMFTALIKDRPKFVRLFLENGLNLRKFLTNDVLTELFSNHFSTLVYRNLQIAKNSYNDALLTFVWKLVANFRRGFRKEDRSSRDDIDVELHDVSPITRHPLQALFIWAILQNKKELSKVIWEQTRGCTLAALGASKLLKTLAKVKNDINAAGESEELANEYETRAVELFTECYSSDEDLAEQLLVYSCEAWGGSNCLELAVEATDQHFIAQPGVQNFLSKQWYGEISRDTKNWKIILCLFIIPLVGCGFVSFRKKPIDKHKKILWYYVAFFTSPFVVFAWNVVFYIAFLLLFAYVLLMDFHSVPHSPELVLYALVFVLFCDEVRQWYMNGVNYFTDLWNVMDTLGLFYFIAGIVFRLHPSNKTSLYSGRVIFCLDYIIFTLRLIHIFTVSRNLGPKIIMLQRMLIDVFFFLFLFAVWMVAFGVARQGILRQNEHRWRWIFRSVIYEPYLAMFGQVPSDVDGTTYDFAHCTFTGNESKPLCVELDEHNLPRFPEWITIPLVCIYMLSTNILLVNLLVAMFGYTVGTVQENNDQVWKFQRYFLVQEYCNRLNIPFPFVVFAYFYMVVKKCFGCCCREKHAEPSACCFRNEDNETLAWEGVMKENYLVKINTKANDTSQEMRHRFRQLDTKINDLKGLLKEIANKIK
# Assay method text: In Vitro Canine TRPM8 Functional Assay (Ca2+ fluorescence, icilin activation)
# Assay type: cell-based
# Test context: compound at 0.2 μM; canine TRPM8, icilin activation; read-out: % Inh @ 0.2
Label scheme for inhibition at 0.2 µM: lower than 80% is false (0), 80% and above is true (1).

{"Given smiles": "COc1ccc(S(=O)(=O)N(Cc2ccc(F)c(C(F)(F)F)c2)c2cc3ccccc3s2)cc1", "Label value": "false (0)"}
{"Given smiles": "O=S(=O)(c1ccc(-c2nnn[nH]2)cc1)N(CCC(F)(F)F)c1cc2ccccc2s1", "Label value": "false (0)"}
{"Given smiles": "Cc1c(N(CCC2CC2)S(=O)(=O)c2ccc(-c3nnn[nH]3)cc2)sc2ccccc12", "Label value": "true (1)"}
{"Given smiles": "COC(=O)c1ccc(S(=O)(=O)N(Cc2ccc(F)c(C(F)(F)F)c2)c2sc3ccccc3c2Cl)cc1", "Label value": "false (0)"}
{"Given smiles": "CS(=O)(=O)Nc1cccc(S(=O)(=O)N(CCC(F)(F)F)c2sc3ccccc3c2Cl)c1", "Label value": "true (1)"}
{"Given smiles": "CC#CCCN(c1sc2ccccc2c1C)S(=O)(=O)CC", "Label value": "false (0)"}
{"Given smiles": "O=S(=O)(c1cccc(O)c1)N(Cc1ccc(F)c(C(F)(F)F)c1)c1sc2ccccc2c1Cl", "Label value": "true (1)"}
{"Given smiles": "CC1=C(N(CCCCC(F)(F)F)S(=O)(=O)c2ccccc2)S(=O)(=O)c2ccccc21", "Label value": "true (1)"}
{"Given smiles": "CCCCN(c1cc2ccccc2s1)S(=O)(=O)c1cccnc1", "Label value": "false (0)"}
{"Given smiles": "CCS(=O)(=O)N(C[C@@H]1CCC(=O)N1)c1sc2ccccc2c1C", "Label value": "false (0)"}
{"Given smiles": "CS(=O)(=O)N(Cc1ccc(F)c(C(F)(F)F)c1)c1sc2ccccc2c1Br", "Label value": "true (1)"}
{"Given smiles": "CNCc1c(N(Cc2ccc(F)c(C(F)(F)F)c2)S(=O)(=O)c2ccccc2)sc2ccccc12", "Label value": "true (1)"}
{"Given smiles": "CCCCN(c1sc2ccccc2c1CN(C)C)S(=O)(=O)c1ccc(C(=O)OC)cc1", "Label value": "false (0)"}
{"Given smiles": "Cc1c(N(Cc2ccc(C(F)(F)F)cc2)S(=O)(=O)c2ccc(C(=O)O)cc2)sc2ccccc12", "Label value": "true (1)"}
{"Given smiles": "CCS(=O)(=O)N(Cc1ccc(F)c(F)c1)c1sc2ccccc2c1C(C)(C)O", "Label value": "true (1)"}
{"Given smiles": "CS(=O)(=O)CS(=O)(=O)N(Cc1ccc(F)c(C(F)(F)F)c1)c1sc2ccccc2c1Br", "Label value": "false (0)"}
{"Given smiles": "O=c1[nH]c(-c2ccc(S(=O)(=O)N(CCCCC(F)(F)F)c3sc4ccccc4c3Br)cc2)ns1", "Label value": "true (1)"}
{"Given smiles": "Nc1ccc(S(=O)(=O)N(CCC(F)(F)F)c2cc3ccccc3s2)cc1Cl", "Label value": "true (1)"}
{"Given smiles": "O=C(O)c1ccc(S(=O)(=O)N(CCN2CCOCC2)c2sc3ccccc3c2Br)cc1", "Label value": "true (1)"}
{"Given smiles": "O=S(=O)(c1ccc(O)cc1)N(Cc1ccc(F)c(C(F)(F)F)c1)c1sc2ccccc2c1Br", "Label value": "true (1)"}
{"Given smiles": "CC1=C(N(Cc2ccc(F)c(C(F)(F)F)c2)S(=O)(=O)c2ccccc2)S(=O)(=O)c2ccccc21", "Label value": "true (1)"}
{"Given smiles": "CCCCN(c1sc2ccccc2c1C(N)=O)S(=O)(=O)c1ccc(C(=O)O)cc1", "Label value": "false (0)"}
{"Given smiles": "CCN(c1sc2ccccc2c1Br)S(=O)(=O)c1ccc(C(=O)O)cc1", "Label value": "false (0)"}
{"Given smiles": "O=Cc1c(N(Cc2ccc(F)c(C(F)(F)F)c2)S(=O)(=O)c2ccc(C(=O)O)cc2)sc2ccccc12", "Label value": "true (1)"}
{"Given smiles": "CCCCN(c1sc2ccccc2c1Cl)S(=O)(=O)NC", "Label value": "false (0)"}
{"Given smiles": "Cc1c(N(CCC2CC2)S(=O)(=O)c2ccc(C(=O)N3CCN(C)CC3)cc2)sc2ccccc12", "Label value": "false (0)"}
{"Given smiles": "COCCN(c1sc2ccccc2c1Br)S(=O)(=O)c1ccccc1", "Label value": "true (1)"}
{"Given smiles": "Cc1c(N(CCC2CC2)S(=O)(=O)c2ccc(N(C)C)cc2)sc2ccccc12", "Label value": "true (1)"}
{"Given smiles": "O=S(=O)(c1ccc(-c2nnn[nH]2)cc1)N(CCC(F)(F)F)c1sc2ccccc2c1Br", "Label value": "true (1)"}
{"Given smiles": "Cc1c(N(Cc2ccc(F)c(C(F)(F)F)c2)S(=O)(=O)CCCO)sc2ccccc12", "Label value": "true (1)"}
{"Given smiles": "O=S(=O)(Nc1ccc(S(=O)(=O)N(CCC2CC2)c2sc3ccccc3c2Br)cc1)C1CC1", "Label value": "true (1)"}

* * *

# System under test: canine TRPM8 (Canis lupus familiaris, UniProt Q1A7N1)
# Assay method text: In Vitro Canine TRPM8 Functional Assay (Ca2+ fluorescence, icilin activation)
# Type: cell-based
# Test context: HEK293 cells stably expressing canine TRPM8; icilin activation; eight-point dose-response; read-out: IC50
Parameter: log10(IC50) (log10 of the value in nM)

{"Compound": "Cc1c(N(Cc2ccc(OC(F)(F)F)cc2)S(=O)(=O)c2ccc(-c3nnn[nH]3)cc2)sc2ccccc12", "Test result": 0.34}
{"Compound": "O=S(=O)(c1ccccc1)N(CCN1CCOCC1)c1sc2ccccc2c1Br", "Test result": 1.39}
{"Compound": "COC(=O)CCCS(=O)(=O)N(Cc1ccc(F)c(C(F)(F)F)c1)c1sc2ccccc2c1C", "Test result": 1.03}
{"Compound": "Cc1cc(C(=O)O)sc1S(=O)(=O)N(Cc1ccc(F)c(C(F)(F)F)c1)c1sc2ccccc2c1C", "Test result": 1.20}
{"Compound": "Cc1c(N(CCCC(F)(F)F)S(=O)(=O)c2ccc(C(=O)O)cc2)sc2ccccc12", "Test result": 1.23}
{"Compound": "CS(=O)(=O)Nc1ccc(S(=O)(=O)N(CCC(F)(F)F)c2sc3ccccc3c2Cl)cc1", "Test result": 1.41}
{"Compound": "CCS(=O)(=O)N(Cc1ccc(F)c(F)c1)c1sc2ccccc2c1C(C)O (stereo not shown)", "Test result": 0.70}
{"Compound": "Cc1c(N(Cc2ccc(F)c(C(F)(F)F)c2)S(=O)(=O)c2cccc(Oc3ccccc3)c2)sc2ccccc12", "Test result": 0.85}
{"Compound": "CS(=O)(=O)Nc1c(Cl)cc(S(=O)(=O)N(CCC(F)(F)F)c2sc3ccccc3c2Cl)cc1Cl", "Test result": 1.83}
{"Compound": "CC(C)c1c(N(CCC2CC2)S(=O)(=O)c2ccccc2)sc2ccccc12", "Test result": 1.46}
{"Compound": "O=S(=O)(c1ccccc1)N(Cc1ccc(OC(F)(F)F)cc1)c1sc2ccccc2c1Br", "Test result": 0.40}
{"Compound": "O=[N+]([O-])c1ccccc1CN(c1sc2ccccc2c1Br)S(=O)(=O)c1ccccc1", "Test result": 1.29}
{"Compound": "Cc1c(N(CCOC(C)(C)C)S(C)(=O)=O)sc2ccccc12", "Test result": 1.60}
{"Compound": "Cc1c(N(CCCCC(F)(F)F)S(=O)(=O)c2ccc(N(C)C)nc2)sc2ccccc12", "Test result": 1.17}
{"Compound": "O=S(=O)(c1ccccc1)N(Cc1ccccc1)c1sc2ccccc2c1Br", "Test result": 0.66}
{"Compound": "COC(=O)c1ccc(S(=O)(=O)N(CCCOC(C)(C)C)c2sc3ccccc3c2C)cc1", "Test result": 1.08}

* * *

# System under test: rat TRPM8 (Rattus norvegicus (Rat))
# Sequence (Q8R455 whole entry): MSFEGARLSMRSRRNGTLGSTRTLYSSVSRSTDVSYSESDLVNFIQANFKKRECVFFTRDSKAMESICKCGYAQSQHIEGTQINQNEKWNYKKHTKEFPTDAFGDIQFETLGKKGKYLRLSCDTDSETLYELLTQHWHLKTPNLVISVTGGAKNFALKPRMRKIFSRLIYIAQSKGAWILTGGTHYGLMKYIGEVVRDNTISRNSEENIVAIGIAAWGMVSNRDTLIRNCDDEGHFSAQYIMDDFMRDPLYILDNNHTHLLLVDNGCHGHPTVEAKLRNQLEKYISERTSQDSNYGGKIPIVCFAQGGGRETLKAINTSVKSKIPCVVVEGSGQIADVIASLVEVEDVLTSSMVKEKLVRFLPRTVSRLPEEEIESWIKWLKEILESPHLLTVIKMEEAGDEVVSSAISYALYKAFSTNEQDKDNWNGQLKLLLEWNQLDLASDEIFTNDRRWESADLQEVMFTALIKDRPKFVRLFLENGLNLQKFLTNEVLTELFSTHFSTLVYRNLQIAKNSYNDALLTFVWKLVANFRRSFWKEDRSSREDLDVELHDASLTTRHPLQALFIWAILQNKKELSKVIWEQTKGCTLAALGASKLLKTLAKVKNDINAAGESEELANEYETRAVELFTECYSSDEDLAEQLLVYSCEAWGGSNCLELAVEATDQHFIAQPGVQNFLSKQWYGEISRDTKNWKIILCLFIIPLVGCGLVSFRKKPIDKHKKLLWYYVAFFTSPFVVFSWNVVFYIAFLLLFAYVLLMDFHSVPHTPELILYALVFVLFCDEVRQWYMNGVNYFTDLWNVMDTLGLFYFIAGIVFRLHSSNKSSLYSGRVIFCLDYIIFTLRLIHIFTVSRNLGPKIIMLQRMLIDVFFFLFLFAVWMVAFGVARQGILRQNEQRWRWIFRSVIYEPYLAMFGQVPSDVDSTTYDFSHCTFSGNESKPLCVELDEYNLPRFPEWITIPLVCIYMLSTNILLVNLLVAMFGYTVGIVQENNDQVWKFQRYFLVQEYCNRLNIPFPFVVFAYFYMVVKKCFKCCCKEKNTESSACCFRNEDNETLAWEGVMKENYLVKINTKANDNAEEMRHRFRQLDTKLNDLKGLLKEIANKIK
# Assay method text: In Vitro Rat TRPM8 Functional Assay (Ca2+ fluorescence, icilin EC80)
# Type: cell-based
# Test context: Freshly transfected cells; read-out: rTRPM8 IC50
pIC50: −log10 of the molar value.

{"Given smiles": "Cc1c(N(Cc2ccc(F)c(C(F)(F)F)c2)S(=O)(=O)c2ccc(C(=O)O)cc2)sc2ccccc12", "pIC50": 8.30}

* * *

# System under test: canine TRPM8 (Canis lupus familiaris, UniProt Q1A7N1)
# Assay method text: In Vitro Canine TRPM8 Functional Assay (Ca2+ fluorescence, icilin activation)
# Format: cell-based
# Test context: HEK293 cells stably expressing canine TRPM8; icilin activation; eight-point dose-response; read-out: IC50
Mark fulfilled for IC50 under 10 nM, not fulfilled if at or over.

{"Compound": "COC(=O)c1ccc(S(=O)(=O)N(Cc2ccc(F)c(C(F)(F)F)c2)c2sc3ccccc3c2C2CCC2)cc1 [Compound 696]", "Label value": "not fulfilled"}
{"Compound": "Cc1c(N(Cc2cc(C(F)(F)F)ccc2F)S(=O)(=O)c2ccc(C(=O)O)cc2)sc2ccccc12 [Compound 519]", "Label value": "fulfilled"}
{"Compound": "COc1ccc(S(=O)(=O)N(Cc2ccc(F)c(F)c2)c2sc3ccccc3c2C)cc1 [Compound 26]", "Label value": "not fulfilled"}
{"Compound": "CCS(=O)(=O)N(Cc1ccc(F)c(C(F)(F)F)c1)c1cc2ccccc2s1 [Compound 43]", "Label value": "not fulfilled"}
{"Compound": "Nc1ccc(S(=O)(=O)N(CCC(F)(F)F)c2cc3ccccc3s2)cc1Cl [Compound 586]", "Label value": "not fulfilled"}
{"Compound": "O=C(O)c1ccc(S(=O)(=O)N(CC2CC2)c2sc3ccccc3c2Cl)cc1 [Compound 478]", "Label value": "not fulfilled"}
{"Compound": "O=S(=O)(c1ccccc1)N(Cc1ccc(F)c(C(F)(F)F)c1)c1sc2ccccc2c1CO [Compound 214]", "Label value": "fulfilled"}
{"Compound": "O=C(O)c1ccc(S(=O)(=O)N(CCC(F)(F)F)c2sc3ccccc3c2Cl)cc1 [Compound 480]", "Label value": "not fulfilled"}
